Every entry's value here was drawn from ChEMBL document CHEMBL1138117.

- target-system: DNA polymerase III PolC-type (Bacillus subtilis (strain 168), UniProt P13267)
- Sequence (P13267 whole entry): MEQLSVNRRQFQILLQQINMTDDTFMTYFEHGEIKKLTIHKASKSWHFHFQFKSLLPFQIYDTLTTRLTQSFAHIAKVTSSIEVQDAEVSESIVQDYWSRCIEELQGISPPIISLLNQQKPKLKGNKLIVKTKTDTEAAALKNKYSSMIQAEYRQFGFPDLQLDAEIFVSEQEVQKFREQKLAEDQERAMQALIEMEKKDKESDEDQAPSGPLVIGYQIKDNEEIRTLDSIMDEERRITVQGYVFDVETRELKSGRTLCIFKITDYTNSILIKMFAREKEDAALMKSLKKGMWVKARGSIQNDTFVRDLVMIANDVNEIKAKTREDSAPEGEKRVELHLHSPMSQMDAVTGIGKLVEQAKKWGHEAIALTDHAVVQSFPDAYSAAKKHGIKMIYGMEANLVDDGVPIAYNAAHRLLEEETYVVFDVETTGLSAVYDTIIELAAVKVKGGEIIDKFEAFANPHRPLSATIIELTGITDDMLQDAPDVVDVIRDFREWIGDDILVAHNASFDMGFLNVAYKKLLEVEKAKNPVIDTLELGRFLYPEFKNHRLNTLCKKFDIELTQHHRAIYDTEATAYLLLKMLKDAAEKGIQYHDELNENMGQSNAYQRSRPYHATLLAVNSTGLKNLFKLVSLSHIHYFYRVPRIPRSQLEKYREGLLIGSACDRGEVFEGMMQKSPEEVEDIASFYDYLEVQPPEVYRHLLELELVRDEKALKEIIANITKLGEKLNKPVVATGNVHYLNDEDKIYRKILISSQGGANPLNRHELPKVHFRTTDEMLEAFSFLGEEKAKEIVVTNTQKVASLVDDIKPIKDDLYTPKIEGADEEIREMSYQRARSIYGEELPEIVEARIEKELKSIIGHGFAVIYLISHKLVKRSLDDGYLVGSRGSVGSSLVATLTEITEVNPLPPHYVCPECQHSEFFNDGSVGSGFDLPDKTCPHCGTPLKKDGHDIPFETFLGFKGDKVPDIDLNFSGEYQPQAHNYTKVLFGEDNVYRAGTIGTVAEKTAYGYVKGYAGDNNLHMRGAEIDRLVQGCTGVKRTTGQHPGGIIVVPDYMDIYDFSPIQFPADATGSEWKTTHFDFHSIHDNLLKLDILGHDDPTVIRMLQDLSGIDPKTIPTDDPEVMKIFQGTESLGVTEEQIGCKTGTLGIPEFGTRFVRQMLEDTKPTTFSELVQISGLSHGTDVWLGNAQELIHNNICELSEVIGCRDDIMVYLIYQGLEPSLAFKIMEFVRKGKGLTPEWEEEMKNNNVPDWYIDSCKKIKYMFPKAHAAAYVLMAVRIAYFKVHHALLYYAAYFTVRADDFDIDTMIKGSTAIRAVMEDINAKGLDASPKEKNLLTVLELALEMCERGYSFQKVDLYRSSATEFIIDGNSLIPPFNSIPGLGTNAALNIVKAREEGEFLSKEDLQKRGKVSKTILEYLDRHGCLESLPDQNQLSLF
- run-description: Binding affinity to Bacillus subtilis DNA polymerase3C
- cond: read-out: Ki
pKi: −log10 of the molar value.
Decision: pKi >= 8 yields 1, all other cases yield 0.

In plain terms: is recorded pKi at least 8 for "CCc1cc(Nc2cc(=O)n(CCCCO)c(=O)[nH]2)ccc1C" ?
0

Same again, this time with "CCc1cc(Nc2cc(=O)n(CCCCCN3CCN(c4cc5c(cc4F)c(=O)c(C(=O)O)cn5C4CC4)CC3)c(=O)[nH]2)ccc1C"
0

Same again, this time with CCc1cc(Nc2cc(=O)n(CCCCCN3CC4OCCN(c5cc6c(cc5F)c(=O)c(C(=O)O)cn6C5CC5)C4C3)c(=O)[nH]2)ccc1C (stereo not given)
0

Same again, this time with CCc1cc(Nc2cc(=O)n(CCCCCN3CC4CCCN(c5cc6c(cc5F)c(=O)c(C(=O)O)cn6CC)C4C3)c(=O)[nH]2)ccc1C (stereo not given)
0

Same again, this time with CCc1cc(Nc2cc(=O)n(CCCCN3CCN(c4cc5c(cc4F)c(=O)c(C(=O)O)cn5C4CC4)CC3C)c(=O)[nH]2)ccc1C (stereo not given)
0

Same again, this time with "CCc1cc(Nc2cc(=O)n(CCCCN3CCN(c4c(F)cc5c(=O)c(C(=O)O)cn(C6CC6)c5c4F)C[C@@H]3C)c(=O)[nH]2)ccc1C"
1

* * *

- Test system: Staphylococcus aureus
- run-description: Antibacterial activity against Staphylococcus aureus smith
- Format: functional
metric: MIC (µg/mL)
The figure you give is taken to be in µg/mL; do not add the unit.

Param item = "Cc1ccc(Nc2cc(=O)n(CCCCN3CCN(c4cc5c(cc4F)c(=O)c(C(=O)O)cn5C4CC4)CC3)c(=O)[nH]2)cc1C" ; retrieve measured MIC.
0.625

Same again, this time with "CCc1cc(Nc2cc(=O)n(CCCCN3CCN(c4cc5c(cc4F)c(=O)c(C(=O)O)cn5CC)CC3)c(=O)[nH]2)ccc1C"
1.25

Same again, this time with "CCc1cc(Nc2cc(=O)n(CCCCN3CCN(c4cc5c(cc4F)c(=O)c(C(=O)O)cn5-c4ccc(F)cc4)CC3)c(=O)[nH]2)ccc1C"
0.625

* * *

- target-system: DNA polymerase III PolC-type (Bacillus subtilis (strain 168), UniProt P13267)
- run-description: Binding affinity to Bacillus subtilis DNA polymerase3C
- cond: read-out: Ki
Kindly supply the reported Ki values for the records listed here.
The figure you give is taken to be in nM; do not add the unit.

Param item = "CCc1cc(Nc2cc(=O)n(CCCCN3CCN(c4c(F)cc5c(=O)c(C(=O)O)cn(C6CC6)c5c4OC)CC3)c(=O)[nH]2)ccc1C" ; retrieve measured Ki.
14

Same again, this time with "CCc1cc(Nc2cc(=O)n(CCCCN3CCN(c4c(F)cc5c(=O)c(C(=O)O)cn(C6CC6)c5c4Cl)CC3)c(=O)[nH]2)ccc1C"
10

Same again, this time with "CCc1cc(Nc2cc(=O)n(CCCCN3CCN(c4cc5c(cc4F)c(=O)c(C(=O)O)cn5C(C)(C)C)CC3)c(=O)[nH]2)ccc1C.Cl"
13

Same again, this time with "CCc1cc(Nc2cc(=O)n(CCCCN3CCN(c4cc5c(cc4F)c(=O)c(C(=O)O)cn5-c4ccc(F)cc4)CC3)c(=O)[nH]2)ccc1C"
17
